Test system: IGROV1 ovarian
Assay Summary: NCI tumour cell line growth inhibition, 48 h

{"Compound": "CO/N=C(\\COc1ccc2c(=O)cc(-c3ccccc3)oc2c1)c1ccc(F)cc1", "TGI": "66.6 µM"}
{"Compound": "O=C(/C=C/c1ccc(OCc2ccccc2)c(OCc2ccccc2)c1)OCc1ccccc1", "TGI": "> 100 µM"}
{"Compound": "CN(C)CC/C(=N\\Nc1c(F)c(F)c(F)c(F)c1F)c1ccccc1", "TGI": "> 100 µM"}
{"Compound": "Cn1c(=O)n2c(=O)n(C)c(=O)n2c1=O", "TGI": "> 100 µM"}
{"Compound": "O=c1[nH]c2ccccc2nc1CBr", "TGI": "11.3 µM"}
{"Compound": "COc1ccc2c(c1)CC[C@@H]1C2CC[C@]2(C)C(=O)N(CCN3CCCC3)C(=O)CC12 (stereo partly specified)", "TGI": "> 100 µM"}
{"Compound": "COc1cccc(NC(=O)c2c(SC)c(C#N)c(=O)n(N)c2N)c1", "TGI": "> 100 µM"}
{"Compound": "Nc1ncc2ccc3c(ccn3C3CC(O)C(CO)O3)c2n1 (stereo unspecified)", "TGI": "> 100 µM"}
{"Compound": "CC(Cc1ccc(O)cc1)NCC(O)c1ccc(O)c(O)c1 (stereo unspecified)", "TGI": "> 100 µM"}
{"Compound": "CCOC(=O)C(C)(C)Oc1ccc(Cl)cc1", "TGI": "> 1000 µM"}
{"Compound": "O=C1NC(=O)C2C1c1[nH]c3ccccc3c1C1CCCC12 (stereo unspecified)", "TGI": "> 100 µM"}
{"Compound": "COc1cc(C2c3cc4c(cc3[C@@H](NCCCN3CCCC3=O)C3COC(=O)[C@H]23)OCO4)cc(OC)c1O (stereo partly specified)", "TGI": "> 100 µM"}
{"Compound": "CC(C)(C)c1ccc(-n2c3nc(=O)n(-c4ccccc4C(F)(F)F)c(=O)c-3cc3ccccc32)cc1", "TGI": "> 100 µM"}
{"Compound": "COc1c(-c2ccccc2)oc2c(CP(=O)(OC)OC)cccc2c1=O", "TGI": "> 100 µM"}
{"Compound": "CC(=O)Oc1cc2c[n+](C)c3c4cc(OC(C)=O)c(OC(C)=O)cc4ccc3c2cc1OC(C)=O", "TGI": "> 100 µM"}
{"Compound": "CC(C)(C)c1ccc2c(c1)S(=O)(=O)Nc1cccc(c1)NS(=O)(=O)c1cc(C(C)(C)C)ccc1OCCOCCO2", "TGI": "> 100 µM"}
{"Compound": "CCN1C(Cl)=NS(=O)(=O)c2ccccc21", "TGI": "> 100 µM"}
{"Compound": "O=P(Nc1ccccc1)(Oc1ccccc1)N1CCN(c2ccccc2)CC1 (stereo unspecified)", "TGI": "40.4 µM"}
{"Compound": "Cc1ccc(N=Nc2c(O)c(S(=O)(=O)O)cc3cc(S(=O)(=O)O)ccc23)c(C)c1", "TGI": "> 100 µM"}
{"Compound": "COc1ccc(/C=C/C(=O)Oc2ccc(/C=C3\\CCCCC3=O)cc2)cc1", "TGI": "> 100 µM"}
{"Compound": "COc1nc(NC2OCC(O)C(O)C2O)c(NC2OCC(O)C(O)C2O)c(=O)n1C (stereo unspecified)", "TGI": "> 100 µM"}

###

System: SR leukemia
Assay Summary: NCI tumour cell line growth inhibition, 48 h

{"Molecule": "Cc1ccc(NC(=O)CSc2nnc(Cc3ccccc3)o2)c(C)c1", "System Tested": "SR leukemia", "TGI": "> 100 µM"}
{"Molecule": "O=C(/C=C/c1ccccc1O)C(c1ccccc1)c1ccccc1", "System Tested": "SR leukemia", "TGI": "> 100 µM"}
{"Molecule": "COC1OC(C)C(OC(=O)C(C)(C)C)C(OS(=O)(=O)c2ccc(C)cc2)C1OS(=O)(=O)c1ccc(C)cc1 (stereo unspecified)", "System Tested": "SR leukemia", "TGI": "> 100 µM"}
{"Molecule": "Cc1ccncc1N1CCN(c2ccnc(Cl)c2)C1=O", "System Tested": "SR leukemia", "TGI": "> 100 µM"}
{"Molecule": "Cc1cc(C)n(-c2nc3ccccc3c(=O)[nH]2)n1", "System Tested": "SR leukemia", "TGI": "> 29.5 µM"}
{"Molecule": "O=P(Nc1ccccc1)(Oc1ccccc1)N1CCN(c2ccccc2)CC1 (stereo unspecified)", "System Tested": "SR leukemia", "TGI": "> 100 µM"}
{"Molecule": "Cn1cc(-c2ccc(-c3cn(C)c4ncccc34)[nH]2)c2cccnc21", "System Tested": "SR leukemia", "TGI": "> 22.1 µM"}
{"Molecule": "O=[N+]([O-])[O][Sn]([O][Sn]([O][N+](=O)[O-])([c]1ccccc1)[c]1ccccc1)([c]1ccccc1)[c]1ccccc1", "System Tested": "SR leukemia", "TGI": "> 100 µM"}
{"Molecule": "CCCCCCC/C(=N\\N=C(N)N)c1ccc(O)cc1", "System Tested": "SR leukemia", "TGI": "3.96 µM"}
{"Molecule": "CC(=O)NC1C(O)CC(OCCCSCCN)(C(=O)O)OC1C(O)C(O)CO (stereo unspecified)", "System Tested": "SR leukemia", "TGI": "> 100 µM"}
{"Molecule": "Clc1ccc(C2c3ccccc3-c3nc4ccccc4n32)cc1 (stereo unspecified)", "System Tested": "SR leukemia", "TGI": "> 54.4 µM"}

###

Test system: HOP-18 NSCLC
Assay Summary: NCI tumour cell line growth inhibition, 48 h

{"Compound": "Cc1ccc(C2C(Cl)C(=O)N2n2cnc3ccccc3c2=O)cc1 (configuration not stated)", "System Tested": "HOP-18 NSCLC", "TGI": "> 100 µM"}
{"Compound": "CCOC1c2cc(OC)c(OC)cc2-c2ccc3ccccc3c2N1C (configuration not stated)", "System Tested": "HOP-18 NSCLC", "TGI": "> 100 µM"}
{"Compound": "O=c1[nH]c2ccccc2nc1CBr", "System Tested": "HOP-18 NSCLC", "TGI": "19 µM"}
{"Compound": "O=c1ccc2ccc(O)c3c4c(=O)ccc5ccc(O)c(c1c23)c54", "System Tested": "HOP-18 NSCLC", "TGI": "3.72 µM"}
{"Compound": "C[Si](C)(C)CC(N)=O", "System Tested": "HOP-18 NSCLC", "TGI": "> 100 µM"}
{"Compound": "COC1OC(C)C(OC(=O)C(C)(C)C)C(OS(=O)(=O)c2ccc(C)cc2)C1OS(=O)(=O)c1ccc(C)cc1 (configuration not stated)", "System Tested": "HOP-18 NSCLC", "TGI": "> 100 µM"}
{"Compound": "CCOC(=O)C(=O)Nc1cccc(Cl)c1C", "System Tested": "HOP-18 NSCLC", "TGI": "> 100 µM"}
{"Compound": "O=C(/C=C/c1ccccc1O)C(c1ccccc1)c1ccccc1", "System Tested": "HOP-18 NSCLC", "TGI": "> 100 µM"}
{"Compound": "CC(=O)N(C)C=C1C(=O)N(C)C(=O)N(C)C1=O", "System Tested": "HOP-18 NSCLC", "TGI": "> 100 µM"}
{"Compound": "COc1nc(NC2OCC(O)C(O)C2O)c(NC2OCC(O)C(O)C2O)c(=O)n1C (configuration not stated)", "System Tested": "HOP-18 NSCLC", "TGI": "> 100 µM"}
{"Compound": "CN(C)CC/C(=N\\Nc1c(F)c(F)c(F)c(F)c1F)c1ccccc1", "System Tested": "HOP-18 NSCLC", "TGI": "> 100 µM"}
{"Compound": "CCOC(=O)[C@@]12C(C)=CC(=O)O[C@]1(C)C[C@H]2C#N", "System Tested": "HOP-18 NSCLC", "TGI": "> 100 µM"}

###

Test system: HL-60(TB) leukemia
Assay Summary: NCI tumour cell line growth inhibition, 48 h
Answer No if TGI is under 8 µM, and Yes if it is 8 µM or more.

{"Molecule": "COC(=O)[C@@H](NC1(c2ccccc2)c2ccccc2-c2ccccc21)[C@H](OC(=O)[C@H]1CCCN1S(=O)(=O)c1ccccc1)C(=O)OC", "Group": "Yes"}
{"Molecule": "NCCSCC(N)C(=O)O (configuration not stated)", "Group": "Yes"}
{"Molecule": "COc1ccc2[nH]c(C(=O)N3CCN(C(=O)OCc4ccc5c(Br)cc(Br)c(O)c5n4)CC3)cc2c1", "Group": "No"}
{"Molecule": "CC(C)=CCc1ccc2[nH]c3c(c2c1)C(=O)C(=O)C(C)=C3C(O)C(C)O (configuration not stated)", "Group": "No"}
{"Molecule": "Cn1cc(-c2ccc(-c3cn(C)c4ncccc34)[nH]2)c2cccnc21", "Group": "No"}
{"Molecule": "C[C@]12CC[C@H](O)C[C@@H]1CC[C@@H]1[C@@H]2CC[C@]2(C)[C@@H](c3cc(C(F)(F)F)n[nH]3)CC[C@@H]12", "Group": "No"}
{"Molecule": "CSC1C=C(C(C)C)CCC1(C)SC (configuration not stated)", "Group": "Yes"}
{"Molecule": "CC(=O)OCCOCn1cc(C=O)c2ccccc21", "Group": "Yes"}
{"Molecule": "CO/C=C(/C(=O)OC)c1ccccc1Oc1c(F)c(F)c(F)c(F)c1F", "Group": "No"}
{"Molecule": "c1cc2ccc3cc2cc1CNCCN1CCNCc2ccc4ccc(cc4c2)CNCCN(CCNC3)CCNCc2ccc3ccc(cc3c2)CNCC1", "Group": "No"}
{"Molecule": "C=CCCC(CCC=C)(C(=O)O)C(=O)O", "Group": "Yes"}
{"Molecule": "COc1ccc(COC(=O)NNC(=O)C2CSC(c3ccccc3)N2C(C)=O)cc1 (configuration not stated)", "Group": "Yes"}
{"Molecule": "CC(=O)NC1C(O)CC(OCCCSCCN)(C(=O)O)OC1C(O)C(O)CO (configuration not stated)", "Group": "Yes"}
{"Molecule": "C=C1CC[C@@H]2C(C)(C)C(O)CCC2(C)C1COc1ccc2ccc(=O)oc2c1 (some centres not stated)", "Group": "Yes"}
{"Molecule": "COc1cc(/C=C2\\CCC(C)C3=C(c4cc(OC)c(OC)c(OC)c4)C(C#N)=C(N)OC32)cc(OC)c1OC (configuration not stated)", "Group": "Yes"}
{"Molecule": "O=c1c2ccccc2sc2nc(CCl)nn12", "Group": "Yes"}
{"Molecule": "CC1(SCC(N)C(=O)O)CC(=O)NC1=O (configuration not stated)", "Group": "Yes"}
{"Molecule": "CCOC(OC1=CCCC1)C(C)[Se]c1ccccc1 (configuration not stated)", "Group": "Yes"}
{"Molecule": "c1ccc(C2=NOC3COc4ccccc4OCC23)cc1 (configuration not stated)", "Group": "Yes"}
{"Molecule": "O=C(N/N=C\\c1cc(Cl)ccc1O)c1ccncc1", "Group": "Yes"}
{"Molecule": "Cn1c(=O)n2c(=O)n(C)c(=O)n2c1=O", "Group": "Yes"}
{"Molecule": "CCOC(=O)C1N(S(=O)(=O)c2ccc(C)cc2)CCC12C(c1ccc(OC)c(OC)c1)=Nc1ccccc12 (configuration not stated)", "Group": "Yes"}
{"Molecule": "Cc1ccc(NC(=O)CSc2nnc(Cc3ccccc3)o2)c(C)c1", "Group": "Yes"}
{"Molecule": "CN(C)c1ccc(/C=C(/C(=O)O)c2csc(-c3nc(/C(=C\\c4ccc(N(C)C)cc4)C(=O)O)cs3)n2)cc1", "Group": "Yes"}
{"Molecule": "C=C[C@H]1CN2CCc3c([nH]c4cc(O)ccc34)[C@@H]2C[C@@H]1C[C@H]1c2[nH]c3ccccc3c2CCN1C", "Group": "No"}
{"Molecule": "CCOC(=O)C(NC(=O)CC)(C(F)(F)F)P(=O)(OCC)OCC (configuration not stated)", "Group": "Yes"}
